The reader will find pIC50 measurements below, all made with rat acid ceramidase (rAC) (Rattus norvegicus (Rat)).
Sequence (Q6P7S1 142-394): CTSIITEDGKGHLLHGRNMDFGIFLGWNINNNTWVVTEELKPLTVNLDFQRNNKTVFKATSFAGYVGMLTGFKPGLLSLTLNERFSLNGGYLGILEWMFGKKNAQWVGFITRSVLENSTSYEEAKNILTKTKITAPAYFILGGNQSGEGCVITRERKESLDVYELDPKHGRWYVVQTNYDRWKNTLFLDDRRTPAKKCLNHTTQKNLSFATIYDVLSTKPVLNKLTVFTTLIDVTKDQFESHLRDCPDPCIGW
Sequence (Q6P7S1 21-141): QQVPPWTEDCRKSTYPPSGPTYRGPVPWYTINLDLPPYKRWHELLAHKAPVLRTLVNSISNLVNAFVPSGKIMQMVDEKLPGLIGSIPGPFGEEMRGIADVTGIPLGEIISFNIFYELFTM
pIC50 field: float, defined as -log10 of concentration (mol/L).

GIVEN_SMILES | TEST_TARGET | pIC50
CCCCCCNC(=O)n1cc(C)c(=O)n(CC2CC2)c1=O | rat acid ceramidase (rAC) (Rattus norvegicus (Rat)) | 7.40
CCCCCCCCNC(=O)n1cc(C(F)(F)F)c(=O)[nH]c1=O | rat acid ceramidase (rAC) (Rattus norvegicus (Rat)) | 8.15
CCCCCCNC(=O)n1cc(Cl)c(=O)[nH]c1=O | rat acid ceramidase (rAC) (Rattus norvegicus (Rat)) | 7.17

Now examine the next entry.
Q) # get_value(readout= pIC50, system= rat acid ceramidase (rAC) (Rattus norvegicus (Rat))) for CCCCCCNC(=O)n1cc(N2CCN(C)CC2)c(=O)[nH]c1=O
A) 5.85

---

molecular target: human acid ceramidase (hAC) (Homo sapiens (Human), UniProt Q13510); assay: Human acid ceramidase (hAC) activity assay, UPLC/MS of lauric acid; assay type: biochemical; settings: at 1 μM; read-out: hAC percent inhibition
Sequence (Q13510 143-395): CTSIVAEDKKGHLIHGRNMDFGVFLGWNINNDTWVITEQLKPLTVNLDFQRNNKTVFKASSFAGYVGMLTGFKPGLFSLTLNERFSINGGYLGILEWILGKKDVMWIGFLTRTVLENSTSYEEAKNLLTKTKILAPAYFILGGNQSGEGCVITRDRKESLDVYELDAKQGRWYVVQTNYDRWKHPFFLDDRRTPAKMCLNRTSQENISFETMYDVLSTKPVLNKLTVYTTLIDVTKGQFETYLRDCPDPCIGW
Sequence (Q13510 22-142): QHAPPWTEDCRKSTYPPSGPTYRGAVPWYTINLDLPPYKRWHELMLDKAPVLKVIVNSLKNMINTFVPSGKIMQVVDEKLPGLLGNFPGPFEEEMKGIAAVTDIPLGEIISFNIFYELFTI
Output Yes for inhibition at 1 µM not less than 90%; output No otherwise.

Please review the entries below; each comes with its answer.
MOLECULE | TEST_TARGET | CLASS_NAME
O=C(NCCCCCc1ccccc1)n1ccc(=O)[nH]c1=O [Example 33] | human acid ceramidase (hAC) (Homo sapiens (Human), UniProt Q13510) | Yes
CCCCCCNC(=O)n1cc(Br)c(=O)n(C)c1=O [Example 25] | human acid ceramidase (hAC) (Homo sapiens (Human), UniProt Q13510) | Yes
CCCCCCNC(=O)n1cc(-c2ccccc2)c(=O)n(C(=O)OCC(C)C)c1=O [Example 26] | human acid ceramidase (hAC) (Homo sapiens (Human), UniProt Q13510) | Yes
CCCCCCNC(=O)n1cc(-c2ccc(F)cc2)c(=O)[nH]c1=O [Example 18] | human acid ceramidase (hAC) (Homo sapiens (Human), UniProt Q13510) | No
CCCCCCNC(=O)n1cc(-c2ccc3ccccc3c2)c(=O)[nH]c1=O [Example 22] | human acid ceramidase (hAC) (Homo sapiens (Human), UniProt Q13510) | No
CCCCCCNC(=O)n1cc(-c2ccc(C(F)(F)F)cc2)c(=O)[nH]c1=O [Example 21] | human acid ceramidase (hAC) (Homo sapiens (Human), UniProt Q13510) | No
CCCCCCNC(=O)n1cc(-c2cccnc2)c(=O)[nH]c1=O [Example 31] | human acid ceramidase (hAC) (Homo sapiens (Human), UniProt Q13510) | Yes
CCCCCCNC(=O)n1cc(Cl)c(=O)n(C(=O)OCC(C)C)c1=O [Example 30] | human acid ceramidase (hAC) (Homo sapiens (Human), UniProt Q13510) | Yes
CCCCCCNC(=O)n1cc(-c2ccc(OC)cc2)c(=O)[nH]c1=O [Example 19] | human acid ceramidase (hAC) (Homo sapiens (Human), UniProt Q13510) | No

Consider the additional molecule presented here.
Q) Hello, I need to know if CCCCCCNC(=O)n1cc(-c2ccc(C)cc2)c(=O)[nH]c1=O [Example 20] has measured inhibition at 1 µM not below 90%. Thanks!
A) No

---

The reader will find IC50 measurements below, all made with rat acid ceramidase (rAC) (Rattus norvegicus (Rat)).
Use µM as the unit, but write only the number.

Q) # get_value(readout= IC50, system= rat acid ceramidase (rAC) (Rattus norvegicus (Rat))) for CCCCCCNC(=O)n1cc(CO)c(=O)[nH]c1=O
A) 0.42

Q) # get_value(readout= IC50, system= rat acid ceramidase (rAC) (Rattus norvegicus (Rat))) for CCCCCCNC(=O)n1cc(Br)c(=O)[nH]c1=O
A) 0.051

Q) # get_value(readout= IC50, system= rat acid ceramidase (rAC) (Rattus norvegicus (Rat))) for CCCCCCNC(=O)n1cc(N(C)Cc2ccccc2)c(=O)[nH]c1=O
A) 5.5

Q) # get_value(readout= IC50, system= rat acid ceramidase (rAC) (Rattus norvegicus (Rat))) for CCCCCCNC(=O)n1cc(OC)c(=O)[nH]c1=O
A) 1.1
